# SYSTEM_NAME: T1, rat µ opioid receptor (rat, UniProt P33535 1-398)
# T1 construct: whole, on cells; membrane preparations of the transfected cells were used; also called rMOR; MOR
# MEASUREMENT_PROTOCOL: competition vs [3H]DAMGO, rMOR cell membranes
Square brackets hold non-standard residues; d marks the D form. Ends that are not written are not given here. * marks the point of attachment. OBzl(3,5-(CF3)2) = FC(F)(F)c1cc(CO*)cc(C(F)(F)F)c1
RESULT_TYPE: Ki (nM)
Kindly answer with a numeric value in nM, unit omitted.

Dear colleague, I am looking for the recorded Ki of the following binder: Y[dA]GFGPLW-{OBzl(3,5-(CF3)2)} (also: TFA salt, also called TY006) [TyrDAlaGlyPheGlyProLeuTrpOBn(CF3)2] 27

Dear colleague, I am looking for the recorded Ki of the following binder: Y[dA]GFLPLW-{OBzl(3,5-(CF3)2)} (also called TY004) [TyrDAlaGlyPheLeuProLeuTrpOBn(CF3)2] 23.3

Dear colleague, I am looking for the recorded Ki of the following binder: Y[dA]GFFPLW-{OBzl(3,5-(CF3)2)} (also called TY003) [TyrDAlaGlyPhePheProLeuTrpOBn(CF3)2] 28.3

Dear colleague, I am looking for the recorded Ki of the following binder: Y[dA]GF[dF]PLW-{OBzl(3,5-(CF3)2)} (also called TY007) [TyrDAlaGlyPheDPheProLeuTrpOBn(CF3)2] 410

FYI, the data here is from patent US8026218.
